Ref: patent US20220017615A1

Listing of recorded OD450 nm of CD47 bound to SIRPα by entry.
target: T1, biotin-labeled CD47 extracellular domain protein (CD47-ECD) (UniProt Q08722 19-139, limits assumed, biotin-labeled (sites not given)); assay: blocking ELISA, biotin-CD47-ECD on coated SIRPα-hFc; Ab 0.064 nM
T1 construct: extracellular domain; also called CD47 protein
T1 sequence (Q08722 19-139 limits assumed): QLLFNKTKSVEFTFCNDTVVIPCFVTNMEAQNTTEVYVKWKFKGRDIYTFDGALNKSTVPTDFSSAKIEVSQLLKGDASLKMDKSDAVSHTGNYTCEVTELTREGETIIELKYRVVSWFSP
Simply state the number, no unit and no words.

The cases that follow already have their OD450 nm of CD47 bound to SIRPα on record.
Binder	OD450 nm of CD47 bound to SIRPα
54G8G6 (antibody, V domains shown, Murine hybridoma antibody purified on protein G) VH: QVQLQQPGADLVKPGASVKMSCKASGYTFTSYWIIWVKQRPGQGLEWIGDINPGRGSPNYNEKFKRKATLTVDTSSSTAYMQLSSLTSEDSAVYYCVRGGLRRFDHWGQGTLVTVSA VL: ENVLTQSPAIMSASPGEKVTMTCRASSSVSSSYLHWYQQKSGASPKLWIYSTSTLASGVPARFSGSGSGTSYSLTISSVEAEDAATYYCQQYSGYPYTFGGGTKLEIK	1.76
132D1E5 (antibody, V domains shown, Murine hybridoma antibody purified on protein G) VH: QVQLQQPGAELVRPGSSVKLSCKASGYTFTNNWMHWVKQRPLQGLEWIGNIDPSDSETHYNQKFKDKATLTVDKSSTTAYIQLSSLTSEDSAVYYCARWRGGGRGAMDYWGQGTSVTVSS VL: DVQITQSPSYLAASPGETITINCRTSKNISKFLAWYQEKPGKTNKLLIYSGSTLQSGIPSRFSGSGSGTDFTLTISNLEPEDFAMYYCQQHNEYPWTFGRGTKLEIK	2.55
20H4G5 (antibody, V domains shown, Murine hybridoma antibody purified on protein G) VH: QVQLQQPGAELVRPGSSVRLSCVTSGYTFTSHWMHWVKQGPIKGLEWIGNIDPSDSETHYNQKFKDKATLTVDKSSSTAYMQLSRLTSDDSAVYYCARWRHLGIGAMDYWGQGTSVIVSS VL: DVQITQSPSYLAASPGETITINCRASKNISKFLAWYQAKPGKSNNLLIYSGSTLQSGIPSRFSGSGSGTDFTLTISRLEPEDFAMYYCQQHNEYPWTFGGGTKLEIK	2.29

Please find the next binder below.
For the binder 51E2F11 (antibody, V domains shown, Murine hybridoma antibody purified on protein G) VH: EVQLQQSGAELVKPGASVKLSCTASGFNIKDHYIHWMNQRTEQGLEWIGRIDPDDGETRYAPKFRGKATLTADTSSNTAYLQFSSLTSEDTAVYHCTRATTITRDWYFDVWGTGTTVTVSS VL: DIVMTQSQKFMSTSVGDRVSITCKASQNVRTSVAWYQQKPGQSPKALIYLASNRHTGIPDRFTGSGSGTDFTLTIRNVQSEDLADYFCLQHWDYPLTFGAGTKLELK , give its reported OD450 nm of CD47 bound to SIRPα.
2.77
